- system_tested: human GLP-1 receptor (human, UniProt P43220 24-463)
- test_name: cell-based or functional assay
Where no end group is shown, it is not given here. [ ]: non-standard residue; d: D form. Bip(2'-Et-4'-OMe) = CCc1cc(OC)ccc1-c1ccc(C[C@H](N)C(=O)O)cc1; αMePhe(2,6-F2) = C[C@](N)(Cc1c(F)cccc1F)C(=O)O; αMePhe(2-F) = C[C@](N)(Cc1ccccc1F)C(=O)O; αMeBip(OMe) = alpha-methylated Bip(OMe); hhPhe = N[C@@H](CCCc1ccccc1)C(=O)O; αMeD = C[C@](N)(CC(=O)O)C(=O)O; αMeP = C[C@@]1(C(=O)O)CCCN1; αMeAPPA = not defined here; αMeS = C[C@](N)(CO)C(=O)O
readout_kind: cAMP release, % activity with respect to control, at 1 µM

See these solved cases before continuing.
>>> observed_measurement("VHSQGT[αMePhe(2,6-F2)]T[αMeS]D[αMeBip(OMe)][hhPhe]-NH2 [Seq. ID. No. 49]")
"95 % of control"
>>> observed_measurement("VHAQGT[αMePhe(2,6-F2)]TSD[αMeBip(OMe)][hhPhe]-NH2 [Seq. ID. No. 26]")
"99 % of control"
>>> observed_measurement("VHAQGT[αMePhe(2-F)]TSD[αMeBip(OMe)][αMeAPPA] (not fully specified (C-terminus); printed as VHAQGT-(αMe-2FPhe)-TSD-(αMe-Bip(OMe))-(αMe-APPA); reading uncertain) [Seq. ID. No. 142]")
"99 % of control"

Prompt: Suppose we examine the binder VH[αMeP]EGT[αMePhe(2-F)]T[αMeS][αMeD][Bip(2'-Et-4'-OMe)][αMeAPPA] (not fully specified (C-terminus); reading uncertain) [Seq. ID. No. 122] ; what cAMP release, % activity with respect to control, at 1 µM value has been reported?
Completion: 99 % of control

Prompt: Now the binder VHAQGT[αMePhe(2,6-F2)]T[αMeS][αMeD][Bip(2'-Et-4'-OMe)][αMeAPPA] (not fully specified (C-terminus); reading uncertain) [Seq. ID. No. 124]
Completion: 96 % of control
